experiment_notes: kinase inhibitors against Plasmodium liver-stage infection, cell-based, known kinase inhibitor set, luminescence, hepatoma host viability (AID 624392);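 also: infected cells incubated roughly two days before readout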
measurement_parameters: Plasmodium liver stage in hepatoma cells, luciferase luminescence, concentration not given here; measured here: host liver cell viability
The entries below are paired with their reported liver cell % of control.
property: liver cell % of control (%)

1. Cn1cc(C2=C(c3cn(CCCCC(=N)N)c4ccccc34)C(=O)NC2=O)c2ccccc21 = 133
2. Cn1cc(C2=C(c3cn(C)c4ccc(Cl)cc34)C(=O)NC2=O)c2ccccc21 = 77
3. COc1cccc(/C=N/Nc2ncnc3c2cnn3-c2cccc(OC)c2)c1 = 96.7
4. CCCn1cc(C2=C(c3cn(C)c4ccccc34)C(=O)NC2=O)c2ccccc21 = 101
5. COc1cccc(C2=C(c3cn(C)c4cccc(OC)c34)C(=O)NC2=O)c1 = 91.4
